quantity kind: melting point

{"compound": "COCCNC(=O)c1cc(C(=O)O)cc([N+](=O)[O-])c1", "quantity kind": "melting point", "observed": "203 to 207 °C"}
{"compound": "Cc1cc(Oc2cccc(C(F)(F)F)c2)nn1C(=O)Nc1ccc(Cl)cc1", "quantity kind": "melting point", "observed": "73 to 74 °C"}
{"compound": "COCCOc1ccnc2c(NC(=O)c3c(Cl)cccc3Cl)cccc12", "quantity kind": "melting point", "observed": "150 to 152 °C"}
{"compound": "CCCCc1nc2c(N)nc3ccc(OCCC4CCN(C(=O)C5CCCC5)CC4)cc3c2n1C", "quantity kind": "melting point", "observed": "147 to 150 °C"}
{"compound": "CC(C)(C)c1ccc(SC(CCl)S(=O)(=O)c2ccccc2)cc1 (stereo unspecified)", "quantity kind": "melting point", "observed": "67 to 69 °C"}
{"compound": "O=C(O)CCCCCc1ccc(O)c(O)c1", "quantity kind": "melting point", "observed": "109 °C"}
{"compound": "COc1ccc2c3c(cn2S(=O)(=O)c2ccc(C)cc2)CC(NC(=O)C(F)(F)F)C(=O)c13 (stereo unspecified)", "quantity kind": "melting point", "observed": "189 to 190 °C"}
{"compound": "Cc1c(Br)c(C#N)nn1C", "quantity kind": "melting point", "observed": "92 to 94 °C"}
{"compound": "CCCc1c(OCCCS(=O)(=O)c2ccc(C(=O)CCC#N)cc2)ccc(C(C)=O)c1O", "quantity kind": "melting point", "observed": "143 to 144 °C"}
{"compound": "CCCCCNc1cccc2c1C(=O)N(C1(C)CCC(=O)NC1=O)C2=O (stereo unspecified)", "quantity kind": "melting point", "observed": "96 to 98 °C"}
{"compound": "C=Cc1c(C#N)nn(-c2c(Cl)cc(C(F)(F)F)cc2Cl)c1Cl", "quantity kind": "melting point", "observed": "69.8 to 70.4 °C"}
{"compound": "CC(C)n1nc(-c2cc(C(N)=O)c(Cl)nc2-c2ccccc2)ccc1=O", "quantity kind": "melting point", "observed": "199 to 200 °C"}
{"compound": "Oc1c(C(Nc2ccc(Cl)cn2)c2ccccn2)ccc2cccnc12 (stereo unspecified)", "quantity kind": "melting point", "observed": "160 to 162 °C"}
{"compound": "CC(C)(C)C(=O)CC(Sc1ccccc1)c1ccc(Cl)cc1 (stereo unspecified)", "quantity kind": "melting point", "observed": "127 to 128 °C"}
{"compound": "CC(=O)SCC(Cc1ccc(C)cc1)C(=O)Nc1cccc(C(=O)O)c1 (stereo unspecified)", "quantity kind": "melting point", "observed": "174 to 175 °C"}
{"compound": "O=C(C1=C(c2ccccc2)c2ccc(O)cc2C1)c1ccc(O)cc1", "quantity kind": "melting point", "observed": "191 to 192 °C"}
{"compound": "COc1cccc(Nc2nccc(-c3sc(N)nc3-c3ccccc3)n2)c1", "quantity kind": "melting point", "observed": "115 to 117 °C"}
{"compound": "Nc1ccc(N2CCN(CCCC3CCCC3)C2=O)cc1", "quantity kind": "melting point", "observed": "97 to 99 °C"}
{"compound": "CSCCc1nc(OCC(F)(F)F)c(C#N)c(N2CCc3ccccc3CC2)n1", "quantity kind": "melting point", "observed": "97 to 100 °C"}
{"compound": "CC(=O)OC1CCC2(C)C3CCC4(C)C(C(C)=O)CCC4C3CC(Cl)C2(Cl)C1 (stereo unspecified)", "quantity kind": "melting point", "observed": "187 °C"}
{"compound": "CC(C)NC(=O)NOCc1nc2c(N)nc3ccccc3c2n1CC(C)(C)O", "quantity kind": "melting point", "observed": "231 to 233 °C"}

###

Examples of compounds with documented melting point follow.
quantity kind: melting point

{"compound": "CNC(=O)Sc1ncc(Cl)cn1", "quantity kind": "melting point", "observed": "115 °C"}
{"compound": "CCCCc1ncc(CO)n1Cc1ccccc1Cl", "quantity kind": "melting point", "observed": "86 to 88 °C"}
{"compound": "Cn1c(=O)c2c(O)nccc2n(C)c1=O", "quantity kind": "melting point", "observed": "> 300 °C"}
{"compound": "CC12CCC3c4ccccc4CCC3C1CCC2NCc1ccccc1 (stereo unspecified)", "quantity kind": "melting point", "observed": "71 to 74 °C"}
{"compound": "CNc1ccc(F)cc1C(C)=O", "quantity kind": "melting point", "observed": "43 to 45 °C"}
{"compound": "O=C(O)c1cc(OCCCCCCc2cccc(OCc3ccccc3)c2OCc2ccccc2)ccc1O", "quantity kind": "melting point", "observed": "97 to 100 °C"}
{"compound": "Cc1cc(C)nc(-n2nc(S(=O)(=O)Nc3c(F)cccc3F)nc2C)n1", "quantity kind": "melting point", "observed": "228 to 230 °C"}
{"compound": "C#CCCOc1cc(NC(=O)CC(CC(=O)O)C(F)(F)F)c(F)cc1Cl (stereo unspecified)", "quantity kind": "melting point", "observed": "136 to 137 °C"}
{"compound": "COC(=O)c1cc(Cl)cc2ccoc12", "quantity kind": "melting point", "observed": "144 to 145 °C"}
{"compound": "CC(C)(C)OC(=O)NC(N)Cc1ccccc1 (stereo unspecified)", "quantity kind": "melting point", "observed": "40 to 50 °C"}
{"compound": "Fc1ccc(-c2cn([C@H]3CN4CCC3CC4)nn2)cn1", "quantity kind": "melting point", "observed": "147 °C"}

###

Examples of compounds with documented melting point follow.

{"compound": "COC1CN(c2ccc(N3C[C@H](CN=[N+]=[N-])OC3=O)cc2F)C1", "melting point": "111 to 112 °C"}
{"compound": "CC(C)C(c1ccc2[nH]c(=O)cnc2c1)n1ccnc1 (stereo not given)", "melting point": "194 °C"}
{"compound": "CCN[C@H]1CCC[C@H](Oc2ccc3[nH]ncc3c2)C1 (relative stereo)", "melting point": "116 to 118 °C"}
{"compound": "O=S(=O)(CC(F)(F)F)c1nc2ccccc2[nH]1", "melting point": "172 to 174 °C"}
{"compound": "CCCCC(=N)NC(=O)Nc1ccc([N+](=O)[O-])cc1", "melting point": "187 to 191 °C"}
{"compound": "CCCN(C1CCN(C)CC1)S(=O)(=O)c1ccc(Nc2nccc(Nc3ccc(F)cc3)n2)cc1", "melting point": "232 °C"}
{"compound": "CCOC(=O)CCC(=O)c1ccc(-c2ccccc2F)cc1", "melting point": "56 to 58 °C"}
{"compound": "Nc1ccc(OC(F)(F)F)cc1CO", "melting point": "75.9 to 77.6 °C"}
{"compound": "O=C1c2ccc(F)cc2CCc2cccnc21", "melting point": "116 to 119 °C"}
{"compound": "CS(=O)(=O)Nc1ccc(C(O)CNC2CCN(c3ccc(CC4SC(=O)NC4=O)cc3)CC2)cn1 (stereo not given)", "melting point": "57 to 59 °C"}
{"compound": "Cc1noc(NS(=O)(=O)c2ccccc2-c2ccc(-c3ncco3)cc2CN2CCN(C(C)C)C2=O)c1C", "melting point": "105 to 110 °C"}
{"compound": "CC(C)c1nc2cc(COc3ccc(CCCn4ccnc4)cc3)ccc2o1", "melting point": "76 to 77 °C"}
{"compound": "CC(C)(C)c1cc(-c2nnc(SCC(=O)O)s2)cc(C(C)(C)C)c1O", "melting point": "188 °C"}
{"compound": "CS(=O)(=O)OCCc1ccc(-c2cccnc2)cc1", "melting point": "66 to 68 °C"}
{"compound": "CCCCCc1cc2c(nc(O)n2CCCCS(C)(=O)=O)c(N)n1", "melting point": "188 to 189 °C"}
{"compound": "CC(=O)Oc1ccc(C(=O)NNC(=O)OC(C)(C)C)cc1OC(C)=O", "melting point": "78 to 82 °C"}
{"compound": "COc1ccc(-c2c3cccc(C(F)(F)F)c3nn2C2CCC2)c(OC)c1", "melting point": "51 to 52 °C"}
{"compound": "O=C(O)CCCCCN1C(=O)c2cccc([N+](=O)[O-])c2C1=O", "melting point": "144 °C"}
{"compound": "CNC(=O)c1cc(N[C@@H]2c3ccccc3C[C@H]2O)c2nc(C)c(C)n2c1 (relative stereo)", "melting point": "143 to 144 °C"}
{"compound": "Fc1cc(-n2cc(CNC(=S)c3ccccn3)nn2)ccc1N1CCSCC1", "melting point": "158 to 160 °C"}

###

Examples of compounds with documented melting point follow.
quantity kind: melting point

{"compound": "COC12CC(C)(c3nc(-c4cncc(Br)c4)no3)CN(C)C1Cc1cn(C)c3cccc2c13 (centres undefined)", "quantity kind": "melting point", "observed": "185 to 189 °C"}
{"compound": "CN(C)C1CN(c2c(F)cc3c(=O)c(C(=O)O)cn(C4CC4)c3c2F)C1", "quantity kind": "melting point", "observed": "256 to 260 °C"}
{"compound": "CC1(C)CC(=C(c2ccc(O)cc2)c2ccc(-c3ccc(CO)cc3)cc2)CC(C)(C)C1", "quantity kind": "melting point", "observed": "222 to 223 °C"}
{"compound": "CC(C)Cc1ccc(C2(C)Oc3ccc(C(=O)c4c[nH]c5ccccc45)cc3O2)cc1 (single isomer, unassigned; (-))", "quantity kind": "melting point", "observed": "155 to 158 °C"}
{"compound": "O=C(O)CCCc1ccc2sc3ccccc3c2c1", "quantity kind": "melting point", "observed": "127 to 128 °C"}
{"compound": "Cc1ccc(S(=O)(=O)n2ccc3c(Cl)c(F)cnc32)cc1", "quantity kind": "melting point", "observed": "125 °C"}
{"compound": "CCOC(=O)C(=CNNc1c(Cl)cc(C(F)(F)F)cc1Cl)C(C)=O", "quantity kind": "melting point", "observed": "75 to 76 °C"}
{"compound": "Cc1nc2cc(C(=O)NC(C)C)c(NC(=O)c3cc(C(F)(F)F)nn3-c3ncccc3Cl)c(Cl)c2n1C", "quantity kind": "melting point", "observed": "248 to 250 °C"}
{"compound": "CCCN1CCN(c2nc3ccc(N=CN(C)C)cc3nc2N2CCN(CCC)CC2)CC1", "quantity kind": "melting point", "observed": "95.5 to 98 °C"}
